tgt: Concanavalin-A (Canavalia ensiformis)
procedure.summary: ConA small-molecule binders, primary screen, artefact control for SMM control protein annotation, biochemical, small-molecule microarray, Alexa647 label, 635 nm (AID 1127);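 further: z combines 667 nm emission intensity with signal-to-noise across three replicate slides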
cond: ConA-A647 binding fluorescence, higher = more signal
Task for the reader: assign each of the following compounds its reported composite z-score.
Answer as a number with no unit attached.

Look up and report measured composite z-score for this entry: COC(=O)CC=C[C@@H](C)[C@@H](C=NO[C@H](C)c1cn([C@@H]2COC[C@H]2O)nn1)NS(=O)(=O)c1ccc(C)cc1
-0.653

In one line, give reported composite z-score of the entry CC(C)CON=C1C[C@@H](O)[C@@H](O)[C@@H]2[C@@H]3C(=O)N(c4cccc(Oc5ccccc5)c4)C(=O)[C@@H]3CC[C@@H]12 .
1.13

Answer with reported composite z-score of CC(=O)OC[C@H]1O[C@H](C#Cc2ccccc2)C=C[C@@H]1OC(C)=O
-0.0189

Give reported composite z-score value for COC(=O)[C@H](C)NC(=O)CCC1CC(OC(=O)NCc2ccc3c(c2)OCO3)CC2(CCCC(COC(=O)NCCc3ccccc3OC)O2)O1 (some centres not stated)
-0.706

Entry O=C1[C@H]2[C@H]3[C@H](O)[C@H](O)CC(=NOCc4ccccc4)[C@@H]3CC[C@H]2C(=O)N1c1ccc(F)cc1F needs its composite z-score filled in; supply it.
0.175

Identify the reported composite z-score for the following entry. C[C@H]1COC(=O)[C@@H]2CCCN2C(=O)[C@@H](C)COC(=O)[C@H](Cc2ccccc2)NC1=O
0.476

// Input: CCN1C(=O)[C@H]2[C@H]3[C@H](O)[C@H](O)CC(=NOCC(C)C)[C@@H]3CC[C@H]2C1=O . Output its composite z-score only.
0.0131

###

tgt: Homeobox protein Hox-A13 (Mus musculus)
procedure.summary: inhibitors of HoxA13-DNA binding, primary screen, biochemical, fluorescence polarization, labeled oligonucleotide (AID 1185)
cond: 15 min, higher = more signal, called active from +8 up or from −8 down
Label label 1 when z-score is at or above -2; otherwise label label 0.

Is z-score at least -2? Consider CO[C@@H]1COC(=O)[C@@H](C)COC(=O)[C@@H](C)NC(=O)CC=C[C@@H]1C
label 1

Does z-score meet or surpass -2 for C[C@H](ON=C1[C@H]2CCn3c(=O)n(-c4ccccc4)c(=O)n3[C@H]2[C@H](O)[C@@H]2O[C@H]12)c1cn([C@H](CO)Cc2ccccc2)nn1 ?
label 0

Test whether the molecule O=C1C[C@@H](O)[C@@H](O)[C@@H]2[C@@H]3C(=O)N(Cc4ccccc4)C(=O)[C@@H]3CC[C@@H]12 records z-score of -2 or higher.
label 1

Test whether the molecule CO[C@H]1COC(=O)CCC[C@@H](C)[C@H](OC)COC(=O)[C@@H](C)NC(=O)CC=C[C@@H]1C records z-score of -2 or higher.
label 1

Could you tell me if the measured z-score of CC(C)CCN1CCc2nc(COc3ccccc3)c3c(c2C1)CO[C@@H](C)C3 reaches -2 or more?
label 0

Does CCOC(=O)[C@H](Cc1ccccc1)NC(=O)CCC1CC(OC(=O)NCCc2ccc(F)cc2)CC2(CCCC(COC(=O)NCc3ccccc3)O2)O1 (stereo not given in full) have a reported z-score of at least -2?
label 0

Record CCC=CCCC(OC(=O)c1ccc(Br)cc1)C1=CCCCC1=O (stereo not given) ; criterion: z-score no lower than -2. Met?
label 0

Is z-score at least -2? Consider O=c1n(Cc2cc3c(cc2Cl)OCO3)c(=O)n2n1CC[C@@H]1C(=NOC[C@@H](O)COCc3ccco3)[C@H]3O[C@H]3[C@@H](O)[C@@H]12
label 1

Tell me whether z-score is at least -2 here: CC(CCN1CCCc2nc(C)c(C)cc21)=NO[C@@H](C)c1cc(-c2c(C)cc(C)cc2C)no1
label 0

Please indicate if the recorded z-score for CCOC(=O)[C@H](CC(C)C)NC(=O)CCC1CC(OC(=O)NCCc2ccc(F)cc2)CC2(CCCC(COC(=O)NCCc3ccccc3OC)O2)O1 (stereo not given in full) meets or exceeds -2.
label 0

Does COC(=O)[C@@H]1CC[C@H](C)[C@@H](c2ccc(C)cc2)N1C(=O)c1ccc(C=NO[C@H](C)c2cn([C@H](CO)Cc3ccccc3)nn2)cc1 have a reported z-score of at least -2?
label 0

z-score >= -2 for CC(CCN1CCCCc2nc(C)c(C)cc21)=NOC[C@@H](O)COCc1ccco1 ?
label 0

Form field: z-score at least -2? Entry: CCN1C(=O)[C@H]2[C@H]3[C@H](O)[C@H](O)CC(=NNC(=O)OCc4ccc(OC)cc4)[C@@H]3CC[C@H]2C1=O
label 1

Would you say CC(C)=CCCC(C)=CCON=C1C[C@@H](O)[C@@H](O)[C@@H]2[C@@H]3C(=O)N(c4cccc(Oc5ccccc5)c4)C(=O)[C@@H]3CC[C@@H]12 shows z-score at minimum -2?
label 0

Hello, I need to know if COC(=O)[C@H](C)NC(=O)CCC1CC(OC(=O)NCc2ccc3c(c2)OCO3)CC2(CCCC(COC(=O)NCc3cccc(C(F)(F)F)c3)O2)O1 (stereo not given in full) has measured z-score not below -2. Thanks!
label 0

// provenance: PubChem BioAssay
